Target: T1, human EphA2 (ephrin receptor A2), on cells (human, UniProt P29317 24-976)
T1 construct: Used for HEK293 transfectants, A549 and other human tumor cell lines
T1 sequence (P29317 24-976 limits assumed): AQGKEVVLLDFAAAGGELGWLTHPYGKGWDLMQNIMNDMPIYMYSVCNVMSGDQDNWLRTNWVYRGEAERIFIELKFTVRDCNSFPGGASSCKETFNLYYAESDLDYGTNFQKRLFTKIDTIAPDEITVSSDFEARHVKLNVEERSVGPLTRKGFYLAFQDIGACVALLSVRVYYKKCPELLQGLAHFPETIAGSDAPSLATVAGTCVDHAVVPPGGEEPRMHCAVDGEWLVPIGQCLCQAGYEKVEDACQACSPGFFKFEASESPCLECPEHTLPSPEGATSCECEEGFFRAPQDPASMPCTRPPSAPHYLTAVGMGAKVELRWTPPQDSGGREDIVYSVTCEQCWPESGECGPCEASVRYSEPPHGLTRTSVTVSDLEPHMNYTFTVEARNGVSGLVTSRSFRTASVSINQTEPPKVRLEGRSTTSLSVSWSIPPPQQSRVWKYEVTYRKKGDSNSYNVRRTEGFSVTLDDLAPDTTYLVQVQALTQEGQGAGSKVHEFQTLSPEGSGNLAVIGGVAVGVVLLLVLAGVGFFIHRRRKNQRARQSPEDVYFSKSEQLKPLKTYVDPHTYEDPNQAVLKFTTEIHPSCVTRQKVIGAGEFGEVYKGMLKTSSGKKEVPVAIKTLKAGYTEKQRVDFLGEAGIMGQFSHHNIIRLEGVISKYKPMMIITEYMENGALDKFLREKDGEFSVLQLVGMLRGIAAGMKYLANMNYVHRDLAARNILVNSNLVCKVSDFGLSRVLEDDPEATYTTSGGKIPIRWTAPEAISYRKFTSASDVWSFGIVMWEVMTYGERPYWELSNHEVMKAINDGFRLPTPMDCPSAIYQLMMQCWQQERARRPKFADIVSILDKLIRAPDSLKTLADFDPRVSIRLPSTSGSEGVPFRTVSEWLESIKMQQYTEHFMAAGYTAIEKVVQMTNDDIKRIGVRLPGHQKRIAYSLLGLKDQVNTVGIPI
Experiment: flow cytometry on A549 cells
recorded.metric: EC50 (nM)
// return numeric value only (unit: nM, not printed)

Q. Answer with the recorded EC50 of AB-009816 (antibody, mouse IgG2a, V domains shown) VH: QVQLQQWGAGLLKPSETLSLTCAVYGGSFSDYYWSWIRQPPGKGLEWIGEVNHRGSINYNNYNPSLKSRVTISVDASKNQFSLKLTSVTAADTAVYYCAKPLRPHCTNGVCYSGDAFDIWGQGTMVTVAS VL: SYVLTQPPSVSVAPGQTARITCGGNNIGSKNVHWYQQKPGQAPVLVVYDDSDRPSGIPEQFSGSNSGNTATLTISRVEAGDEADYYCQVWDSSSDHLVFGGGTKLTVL only.
A. 5.5

Measured values drawn from patent US20250051464A1 for this set.
